# credit: ChEMBL document CHEMBL3132827

SYSTEM_UNDER_TEST: Epidermal growth factor receptor (Homo sapiens)
Sequence (P00533 whole entry): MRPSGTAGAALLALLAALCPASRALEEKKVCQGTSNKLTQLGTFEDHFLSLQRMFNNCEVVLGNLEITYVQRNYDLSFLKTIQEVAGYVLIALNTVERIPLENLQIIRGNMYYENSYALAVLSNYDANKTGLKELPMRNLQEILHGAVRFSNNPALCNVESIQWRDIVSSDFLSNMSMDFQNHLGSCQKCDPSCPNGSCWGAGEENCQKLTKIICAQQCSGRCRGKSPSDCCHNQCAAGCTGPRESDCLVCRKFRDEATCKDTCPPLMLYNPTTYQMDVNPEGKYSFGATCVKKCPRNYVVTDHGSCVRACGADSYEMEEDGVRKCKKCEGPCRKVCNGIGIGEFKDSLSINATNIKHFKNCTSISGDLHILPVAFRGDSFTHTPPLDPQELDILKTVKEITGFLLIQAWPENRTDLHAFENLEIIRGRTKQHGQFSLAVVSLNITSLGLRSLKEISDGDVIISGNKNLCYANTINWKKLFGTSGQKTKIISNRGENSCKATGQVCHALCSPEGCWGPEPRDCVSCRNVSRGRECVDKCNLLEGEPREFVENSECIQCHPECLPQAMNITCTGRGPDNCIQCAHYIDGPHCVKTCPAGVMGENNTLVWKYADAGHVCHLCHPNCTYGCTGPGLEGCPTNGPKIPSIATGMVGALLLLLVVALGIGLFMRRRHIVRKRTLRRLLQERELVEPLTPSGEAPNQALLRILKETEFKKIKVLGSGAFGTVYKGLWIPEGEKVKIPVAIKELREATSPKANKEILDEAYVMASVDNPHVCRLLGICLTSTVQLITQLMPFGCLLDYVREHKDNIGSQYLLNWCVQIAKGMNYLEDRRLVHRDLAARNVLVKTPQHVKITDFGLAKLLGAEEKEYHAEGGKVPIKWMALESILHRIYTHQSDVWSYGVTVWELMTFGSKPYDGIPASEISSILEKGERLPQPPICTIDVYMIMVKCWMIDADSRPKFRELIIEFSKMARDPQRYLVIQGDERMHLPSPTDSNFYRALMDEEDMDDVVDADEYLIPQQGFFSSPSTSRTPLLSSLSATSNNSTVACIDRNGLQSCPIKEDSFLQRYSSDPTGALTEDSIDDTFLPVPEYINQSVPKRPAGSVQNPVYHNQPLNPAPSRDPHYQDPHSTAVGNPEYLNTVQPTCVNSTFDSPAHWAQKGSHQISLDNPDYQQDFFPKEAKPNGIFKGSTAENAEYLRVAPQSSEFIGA
PROCEDURE_TEXT: Inhibition of recombinant wild type EGFR kinase(unknown origin) after 30 mins in presence of [gamma32P]ATP
Threshold 4 nM. IC50 below it: condition met. IC50 at it or above: condition not met.

# SMILES, ASSIGNED_CATEGORY
data = [
    ("C=CC(=O)N1CCc2c(sc3ncnc(Nc4ccc(Br)c(C)c4)c23)C1", "condition not met"),
    ("C=CC(=O)Nc1ccc2ncnc(Nc3cccc(CC)c3)c2c1", "condition met"),
    ("C=CC(=O)N1CCc2c(sc3ncnc(Nc4ccc(CC)cc4)c23)C1", "condition not met"),
    ("C=CC(=O)Nc1ccc2ncnc(Nc3ccc(S(=O)(=O)Nc4nccs4)cc3)c2c1", "condition not met"),
    ("C=CC(=O)Nc1ccc2ncnc(Nc3ccc(S(=O)(=O)NC(=N)N)cc3)c2c1", "condition not met"),
    ("C=CC(=O)Nc1ccc2ncnc(Nc3ccc(Br)cc3C)c2c1", "condition met"),
    ("C=CC(=O)Nc1ccc2ncnc(Nc3ccc(Br)c(C)c3)c2c1", "condition met"),
    ("C=CC(=O)Nc1ccc2ncnc(Nc3ccc(S(=O)(=O)Nc4ccccn4)cc3)c2c1", "condition not met"),
    ("C=CC(=O)N1CCc2c(sc3ncnc(NC4CCCCC4)c23)C1", "condition not met"),
]
